The following compounds are shown together with reported TGase activity remaining (% of DMSO control = 100) values.
# System: transglutaminase (TGase)
# Assay info: Measurement of TG (TGase inhibitory activity, monodansyl cadaverine / N,N-dimethylcasein fluorescence, FDSS 3000)
# Type: biochemical
# Study conditions: TGase activity with compound (10 mM, 1 μL in 0.1 ml enzyme reaction solution); DMSO control taken as 100

Some compounds with recorded TGase activity remaining (% of DMSO control = 100):
Compound	Recorded result
NC(COB(c1ccccc1)c1ccc(Oc2ccc(B(OCC(N)Cc3ccccc3)c3ccccc3)cc2)cc1)Cc1ccccc1 (stereo not shown)	59
CNCCOB(c1ccc(COc2ccc(B(OCCNC)c3ccc(C(F)(F)F)cc3)cc2)cc1)c1ccc(C(F)(F)F)cc1	−12
Cc1ccc(B(OCCN2CCCCC2)c2ccc(Oc3ccc(B(OCCN4CCCCC4)c4ccc(C)cc4)cc3)cc2)cc1	97
CCCCNCCOB(c1ccccc1)c1ccc(COCc2ccc(B(OCCNCCCC)c3ccccc3)cc2)cc1	15

Read the entry NCCOB(c1ccccc1)c1ccc(COCCOc2ccc(B(OCCN)c3ccccc3)cc2)cc1 and write its reported TGase activity remaining (% of DMSO control = 100).
92

Using known records, supply TGase activity remaining (% of DMSO control = 100) for CNCCOB(c1ccccc1)c1ccc(Oc2ccc(B(OCCNC)c3ccc(COCOC)cc3)cc2)cc1
35

Give the reported TGase activity remaining (% of DMSO control = 100) for this compound. Cc1ccc(B(Oc2ccccc2N)c2ccc(C)c(Cl)c2)cc1Cl
26
